# SUBJECT_OF_TEST: AhR (Homo sapiens)
# Sequence (P35869 11-848): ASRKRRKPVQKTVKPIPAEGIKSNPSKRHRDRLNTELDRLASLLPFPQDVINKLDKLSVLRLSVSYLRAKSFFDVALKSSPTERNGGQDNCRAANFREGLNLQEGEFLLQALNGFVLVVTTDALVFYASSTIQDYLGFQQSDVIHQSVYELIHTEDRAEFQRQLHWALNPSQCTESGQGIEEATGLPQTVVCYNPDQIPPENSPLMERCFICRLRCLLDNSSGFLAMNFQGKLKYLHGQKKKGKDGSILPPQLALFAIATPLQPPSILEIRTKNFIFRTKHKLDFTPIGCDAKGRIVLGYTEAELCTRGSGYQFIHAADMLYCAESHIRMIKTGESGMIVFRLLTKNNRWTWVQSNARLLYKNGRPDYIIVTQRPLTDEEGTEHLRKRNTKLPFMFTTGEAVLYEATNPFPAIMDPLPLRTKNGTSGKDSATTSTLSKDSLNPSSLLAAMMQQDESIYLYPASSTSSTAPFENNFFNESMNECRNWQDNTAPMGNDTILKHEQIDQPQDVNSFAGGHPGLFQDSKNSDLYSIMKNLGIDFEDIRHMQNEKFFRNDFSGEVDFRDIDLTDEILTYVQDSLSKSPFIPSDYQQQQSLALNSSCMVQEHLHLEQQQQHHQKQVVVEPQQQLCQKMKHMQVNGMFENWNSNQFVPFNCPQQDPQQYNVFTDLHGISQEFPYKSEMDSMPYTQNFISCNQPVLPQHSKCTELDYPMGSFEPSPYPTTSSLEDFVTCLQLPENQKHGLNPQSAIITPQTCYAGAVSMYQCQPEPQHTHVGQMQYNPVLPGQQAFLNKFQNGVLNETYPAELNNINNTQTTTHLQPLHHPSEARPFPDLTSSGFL
# ASSAY_EXPLANATION: AhR antagonism in human PBMCs - inhibition of IL-22 release
# Type: cell-based
# Design: endogenous in cells
# MEASUREMENT_CONDITIONS: human PBMCs activated with CD3/CD28 agonist mixture, 72 hrs, IL-22 ELISA; average; read-out: hPBMC Inhibition of CD3/CD28 induced IL-22 release: av. pIC50 (converted)
Decide using IC50 alone. Strictly below 0.08 µM: True. Equal to or above 0.08 µM: False.

# COMPOUND, CLASS_ASSIGNMENT
data = [
    ("COc1ncccc1-c1nc2c(c(NCCc3c[nH]c4ccccc34)n1)OCCN2 [Example 64]", "False"),
    ("c1ccc2c3c([nH]c2c1)CC[C@@H](Nc1nc(-c2nccs2)nc2c1OCCN2)C3 [Example 13]", "False"),
    ("Cc1ncsc1-c1nc2c(c(NCCc3c[nH]c4ccccc34)n1)OCCN2 [Example 10]", "True"),
    ("Cc1ncc(-c2nc(N[C@@H]3CCc4[nH]c5ccccc5c4C3)c3c(n2)N(CCO)CCO3)s1 [Example 37]", "False"),
    ("Fc1cncc(-c2nc3c(c(N[C@@H]4CCc5[nH]c6ccccc6c5C4)n2)OCCN3)c1 [Example 4]", "False"),
    ("Cc1ncc(-c2nc3c(c(N(CCO)CCc4c[nH]c5ccccc45)n2)OCCN3)s1 [Example 11]", "False"),
    ("Cc1ncc(-c2nc(NCCc3c[nH]c4ccccc34)c3c(n2)N[C@H](CO)CO3)s1 [Example 60]", "True"),
    ("COC[C@@H]1COc2c(NCCc3c[nH]c4ccccc34)nc(-c3cccc(F)c3)nc2N1 [Example 57]", "True"),
    ("Cc1ncc(-c2nc3c(c(N[C@@H]4CCc5[nH]c6ccccc6c5C4)n2)OC[C@@H](CO)N3)s1 [Example 54]", "False"),
]
